# Test system: rodent lifetime carcinogenesis bioassay, tumor incidence TD50
# assay.details: carcinogenic potency in animals, long-term in vivo studies, CPDB compilation (AID 1745844)
# condition.context: mouse; strain Swiss albino; males; in drinking water; site: liver; lesion: hepatoma; dosed 93 weeks; study length 93 weeks
Active and inactive are the calls of the source. No rule for the calls is given here.
measure.name: TD50

| compound.smiles | recorded.value |
| --- | --- |
| C=CCNN | 274 mg/kg/day (inactive) |

* * *

# Test system: rodent lifetime carcinogenesis bioassay, tumor incidence TD50
# assay.details: carcinogenic potency in animals, long-term in vivo studies, CPDB compilation (AID 1745844)
# condition.context: rat; strain Wistar; males; in drinking water; site: stomach, glandular; lesion: adenoma; dosed 34 weeks; study length 65 weeks

| compound.smiles | measure.unit | TD50 |
| --- | --- | --- |
| CCCN(N=O)/C(N)=N/[N+](=O)[O-] | mg/kg/day | 1.9 |
